METHOD NOTES: HIF-2a reporter inhibitors, primary screen, luminescence, 786-0 RCC cells (AID 624352)
EXPERIMENTAL SETUP: 786-0 RCC cells HIF-2a reporter, luciferase luminescence, overnight; at 18.8 µM
About 2,600 (0.72%) of roughly 360,000 compounds were called active.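 Rule for the calls: active = inhibition of the luminescence signal of 40% or more relative to plate controls, in a single-dose primary screen at 18.75 µM; inactive = the rest.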 Only a selection was taken, and actives are over-represented in it overall.
Answer with one of the outcomes t for active, f for inactive

Tell me the assay call for Cc1cc(C)nc(S/C=C/C(=O)c2ccccc2)n1 please.
t

Tell me the assay call for COc1ccc(C(=O)/C=C/c2ccc(-c3ccccc3)cc2)cc1CSCC(=O)O please.
t

Tell me the assay call for Oc1c(CN2CCOCC2)ccc(CN2CCOCC2)c1O please.
f

Tell me the assay call for Cc1ccc(-c2noc(CNC(=O)c3ccoc3C)n2)cc1 please.
t

Tell me the assay call for COC(=O)Cc1[nH]n(-c2nc3ccccc3s2)c(=O)c1C(C)=Nc1ccc(OC)cc1 please.
t

Tell me the assay call for Cc1cc(C)c(NC(=O)c2oc3ccccc3c2COc2ccccc2)c(C)c1 please.
f

Tell me the assay call for COc1ccccc1CCNC(=O)C1CCN(C(=O)/C=C/c2ccccc2)CC1 please.
f

Tell me the assay call for CC(C)C[C@@H](N)c1nnc(SCC(=O)c2ccc(Cl)cc2)o1 please.
t

Tell me the assay call for COC(=O)c1ccc(COc2ccc(/C=C/C(=O)c3ccc(OC)c(CSCC(=O)O)c3)cc2OC)cc1 please.
f

Tell me the assay call for O=C(Cc1ccc(Cl)cc1)NCc1nc(-c2ccccc2)no1 please.
f

Tell me the assay call for C/C(=C\C(=O)c1ccccc1)Nc1cccc(O)c1 please.
f
